Data provenance: the supplement of paper PMC9170038

System: MS2 coat protein
Assay: apparent KD of MS2 coat protein; designed switch direction (-1 OFF switch, 1 ON switch): -1; higher = weaker reporter binding
Conditions: input ligand: FMN 200 uM
Parameter apparent KD of MS2 coat protein: see the listing below.
Numbers only here, please. The scale is nM.

Please review the entries below; each comes with its answer.
1) CGGAUACAUGAGGAUCACCCAUGUGAGGAUAUCGUACGUUCGUCGAAAGACGAUCGUACGAGAAGGCAUGACCG [Eli x1 4.36] (Eterna round: R97, puzzle: Exclusion 1) = 64
2) AUAAUGUAAGGAUAUCAGUCGACUAGCUGCGGCUAGUCGACUGAGAAGGUACAUGAGGAUCACCCAUGUGAAUA [E4/16-A3] (Eterna round: R97, puzzle: Exclusion 4) = 224
3) GCGCUGUGAGGAUAUUAGUAGUAGAUAAAAUAAACUAUUACUGAGAAGGCACAUGAGGAUCACCCAUGUUGCGC [Eli x4 4.04] (Eterna round: R97, puzzle: Exclusion 4) = 24.7

Next item in the queue.
Problem: What does the record list as apparent KD of MS2 coat protein for GUCAGCUCGUCAGGAUAUACAUGCGUGCUUCGGCACGUAUGAUAGAUCACAUGAGGAUCACCCAUGUAGAAGGGACGAGCUGAU [ENG2/4-B2] (Eterna round: R96, puzzle: Exclusion NG 2) ?
Result: 16.6

###

Parameter apparent KD of MS2 coat protein: see the listing below.
Test system: MS2 coat protein
Test: apparent KD of MS2 coat protein; designed switch direction (-1 OFF switch, 1 ON switch): -1; higher = weaker reporter binding
Settings: input ligand: FMN 200 uM
Numbers only here, please. The scale is nM.

Problem: Lookup: apparent KD of MS2 coat protein / MS2 coat protein / AUCAUAUAACAAGCUUUUUACAUGAGGAUCACCCAUGUGGUUUUUAGUCUUAUCCCGGGCCCGAUAUCGGGCCCGGG [-33.4, -54.7, A 22%] (Eterna round: R97, puzzle: Sensor, turn-off variant 1)
Result: 22.8

Problem: Lookup: apparent KD of MS2 coat protein / MS2 coat protein / GCAGACGUAGUGAGGAUAUGCUCUACCUCGGUAGAGCAGAAGGCACAUGAGGAUCACCCAUGUGAUUCUUCUGC [Omei Ex4B B10] (Eterna round: R97, puzzle: Brourd's mod of Exclusion 4)
Result: 324

Problem: Lookup: apparent KD of MS2 coat protein / MS2 coat protein / AGCCACAGAGGAUAUACAUACAUCCAGUGGUUAAGAAUACUACAUGAGGAUCACCCAUGUAGAAGGCUGUGGCA [Omei Ex2 BD B11] (Eterna round: R97, puzzle: Exclusion 2)
Result: 108

###

Tested on: MS2 coat protein
Assay: apparent KD of MS2 coat protein; designed switch direction (-1 OFF switch, 1 ON switch): 1; higher = weaker reporter binding
Settings: Eterna round: R95; input ligand: microRNA oligo, concentration not stated
PROPERTY: apparent KD of MS2 coat protein

1) ACAGAGUGAAGACAGGAUAUUCGCGAUGGCACAUGAGGAUCACCCAUGUUUUGAGCACAUAAACAGAAGAAGGGUUAAAACUCAG [Zadier] (puzzle: Same State 2) = 119 nM
2) GAUUCACAUGAGGAUCACCCAUGUCGUUAUAUGGGAGGAUAUACGUGGACCGUAGUCCGCGUAGAAGGCCUAAUUG [JL-ss1-3.25 janelle mod] (puzzle: Same State 1) = 303 nM

Problem: Lookup: apparent KD of MS2 coat protein / MS2 coat protein / AGUCCAGCCUGAGCUGGACAAAAGCAUGUACAUGAGGAUCACCCAUGUCAUGUACAAGCUUUAUGCUCGUCUUAAAA [Mat - hsa-mir-208a - Mod of JL - D15] (puzzle: Sensor for hsa-mir-208a)
Result: 15.6 nM

Problem: Lookup: apparent KD of MS2 coat protein / MS2 coat protein / GGUCCAGCCUGAGCUGGACAAAAGCAUGUACAUGAGGAUCACCCAUGUCAUGUACAAGCUUUUUGCUCGUCUUGAAA [JL mod - D87 - 8] (puzzle: Sensor for hsa-mir-208a)
Result: 16.5 nM

Problem: Lookup: apparent KD of MS2 coat protein / MS2 coat protein / GGAGCCGGCACUGAGGAUAUUCAUAUUAAAACAUGAGGAUCACCCAUGUAGGCCAGAAGGCCUUGGGAGAAGGCAGGCCGGCCCG [Bibimoar - 1] (puzzle: Same State 2)
Result: 177 nM

Problem: Lookup: apparent KD of MS2 coat protein / MS2 coat protein / UCUUGGUUUUUGCUCGUUUUUUGUGUUGAACAUGAGGAUCACCCAUGUAUUGUACGGUCCGGUUUGGUAAUGGUCCG [JMF 10] (puzzle: Sensor for hsa-mir-208a)
Result: 16.1 nM

Problem: Lookup: apparent KD of MS2 coat protein / MS2 coat protein / UGGUAACAUGAGGAUCACCCAUGUCAAAUGAAUCGAGGAUAUGGGAAUUAAUAAUAUAAACUAGAAGGCGAAUUUG [Altered State 1-6 - Jieux - Same State 1] (puzzle: Same State 1)
Result: 123 nM

Problem: Lookup: apparent KD of MS2 coat protein / MS2 coat protein / AAUAAGUUCAGCUCGUCUUGCGCCGACUGACAUGAGGAUCACCCAUGUGGAUUCCAAGAGAUCCAUUGGCGUGUUUC [Erisdian] (puzzle: Sensor for hsa-mir-208a)
Result: 87.6 nM

###

Tested on: K4 kissing-loop RNA reporter
Assay: apparent KD of K4 kissing-loop reporter; higher = weaker reporter binding
Conditions: Eterna round: R107; input ligand: arginine 13.2 mM
Threshold check on apparent KD of K4 kissing-loop reporter: at or above 200 nM gives t, strictly below gives f.

1) GCCGUACGCAUGGAUACCAGUUGCGAAGUGAUGUUUCGGGCGAUCAAAGGAUCGCCAGACAACCCUUGGCAGCCAUGCGUACGGC = t
2) AUGCGCAGCCUGCUUACGUAUGAGCCGGAAGGAGCGGCAGAAUUGCCAGGUAGGUCGCCGGCCCAGUGAUGUUGGGAUGGUGUGG [Atusqubela] = f
3) GUUCUGAUGGAAACAUCGGAACAUACUGAUACCAGUAUCGAUAGAUACCCUUGGCAGCAGAAUCAGUAAUAACGAGUGAUGUUCG [Ex Theophylline A K4 2] = t

Problem: Does apparent KD of K4 kissing-loop reporter meet or surpass 200 nM for UGGAGUUGACGAAAAGUCAACUCCUGAGAUACCAGUGACGAAAGUCACCCUUGGCAGCUCACUGGCAGUGAUGUUGCUAUAUAAA [KL-SSTheo-A3] ?
Result: f

Problem: Does apparent KD of K4 kissing-loop reporter meet or surpass 200 nM for UUUUUGGUUUAGAGUGAUGUUCCUUGUAUUCGAGGACCGGUACGGCCGCCACUCGAAUAGAAAAGAAAAGAAAAGAGUGAUGUUU [BDazzled - #3 SS Tryptophan A] ?
Result: t

Problem: Does apparent KD of K4 kissing-loop reporter meet or surpass 200 nM for GGAGAGGUCUUGUUUGGAUGUGAUUAAUGGCGAGGACCGGUACGGCCGCCACUCGGGUGAUGUUAGUGAUGUUGAUGUAGUGAUG [uyumullin] ?
Result: f

###

Parameter apparent KD of K4 kissing-loop reporter: see the listing below.
System: K4 kissing-loop RNA reporter;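 also: bound reporter read as fluorescence of individual clusters on recovered sequencing chips by microscopy, with normalized cluster intensities fitted with a binding model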
Assay: apparent KD of K4 kissing-loop reporter; higher = weaker reporter binding
Settings: Eterna round: R107; input ligand: FMN 200 uM

Please review the entries below; each comes with its answer.
1) UUUUUGGUUUAGAGUGAUGUUCCUUGUAUUCGAGGACCGGUACGGCCGCCACUCGAAUAGAAAAGAAAAGAAAAGAGUGAUGUUU [BDazzled - #3 SS Tryptophan A] = 308 nM
2) CGAGUGAUGUUCGUUUUUUACUUUUUUUGACAGGAUAUGCGGAAACGCAGAAGGGUCACCUUUGAGUUAAAAGAAGUUAUUUUUU [Ex FMN A 18] = 262 nM
3) GCCGUAGAUUGAAGGAGCGGACUUAUAGGUCUUAAGGAGUGAUGUUCCUGACACUCGGCGGUCCAGGUAGGUCGCAAUCUACGGC = 296 nM
4) GCAACAUUGGCAGGAUAUCAUUCUGAGUGAUGUUCAGGGUUCAGCUAACGAAAGUUAGUUGUACCAUGAGAAGGGCUAAUGUUGC [Omei KL FMN B SS A v1] = 332 nM
5) AAUUUAUAUUUAUUCUUUAAAUGUUCAGAAGGAGCGUGAAUUAUCACAGGUAGGUCGCUGAGCUAGUGAUGUUGGCUAUAUACUA [whbob_Ex_Arginine_A_2t124] = 167 nM
6) AAGUGUUCUAGUGAUACCAGACAUUUCUAUUACAUUAAUAUAGCUAAGUGAUGUUUAGCAGUCCCUUGGCAGCACUAUUUCACUA [JR_SSTheophyB_Sub015] = 167 nM

Problem: Lookup: apparent KD of K4 kissing-loop reporter / K4 kissing-loop RNA reporter / CUAAGGGAAGCAGGAUAUCGGUAUUAGUGUGUUAAAUAAACACUCGGGUAGUGAUGUUGCCCGUGGCGAGAAGGGCUACCAUUGG [Laace]
Result: 33.6 nM

Problem: Lookup: apparent KD of K4 kissing-loop reporter / K4 kissing-loop RNA reporter / AAGUCAUAGGCAGGAUAUGCUUAGUAUUAAGGCCAUAUAUACGUAUAGAGUGAUGUUUUGUACCAGGCAGAAGGGCUACAUCCGU [FMN B Excl V5 (+2U)]
Result: 755 nM

Problem: Lookup: apparent KD of K4 kissing-loop reporter / K4 kissing-loop RNA reporter / UGAGGAGAGGGAAGGAGCGUGAAAGAGAAAGAAUAUAGUGAUGUUAUAUAGAAGAAAGAAUCACAGGUAGGUCGCCCGGAGGAGG [SSArgB.B]
Result: 278 nM

Problem: Lookup: apparent KD of K4 kissing-loop reporter / K4 kissing-loop RNA reporter / UCUCAGGAGUGAUGUUCCGUAGGUGGAAGGAAGGAUAUCUAAUGGCAGAGAAGGUCCAUCCUUGCUCGUAUCAGUGCCGGGAAGC [theeternabot_exclusion_KL_FMN_A_13]
Result: 282 nM

Problem: Lookup: apparent KD of K4 kissing-loop reporter / K4 kissing-loop RNA reporter / `AAAUAGAUCAGUCAUCCAGUGAUGUUGGAAGGAGCGUGCGAAAGCACAGGUAGGUCGCCAGAAUAAAAGUGGCUGAUCAAAAUAA`
Result: 273 nM

Problem: Lookup: apparent KD of K4 kissing-loop reporter / K4 kissing-loop RNA reporter / UGAUCUCGGCAGUGAUGUUGCAUAUGAGAAGGAGCGCACGAAAGUGCAGGUAGGUCGCUCAGCCACGACGAAAGUCGCGAGAUCU [#SwitchBubble 3 #K4Early]
Result: 137 nM

Problem: Lookup: apparent KD of K4 kissing-loop reporter / K4 kissing-loop RNA reporter / GACACACUUUCAGGUGUCCAGUGACUGGAUACCAGCAUGGAAACAUGCCCUUGGCAGCCAGAACUGGAAGUGAUGUUUCCAGUAA [Theo A Mod Design7 (Brourd)]
Result: 380 nM

Problem: Lookup: apparent KD of K4 kissing-loop reporter / K4 kissing-loop RNA reporter / UGAUUUAACUGAAGGAGCGGCAAUUGAGAAGGAAAUAUAGUGAUGUUAUAUAAGAGAGAGAGCCAGGUAGGUCGCAGAGGGAGGA [ExArgB.G]
Result: 185 nM

Problem: Lookup: apparent KD of K4 kissing-loop reporter / K4 kissing-loop RNA reporter / AGACUACUGACAGGAUAUGGCAUCCUGGUCGUAUACCGAAAGGUAUACGAUUUUCUUCUAGUGAUGUUAGAAGGGUCGGUAGUCA [Omei KL FMN B Exc B v15]
Result: 128 nM

Problem: Lookup: apparent KD of K4 kissing-loop reporter / K4 kissing-loop RNA reporter / AUGCUUUUAAUAACACUAUAUACAGCUGAAGGAGCGACAAUAAAGUCAGGUAGGUCGCAGAAUAGAUGAGUGAUGUUCAUUUUUA [#05 K4 Arginine A Exclusion]
Result: 92.8 nM

Problem: Lookup: apparent KD of K4 kissing-loop reporter / K4 kissing-loop RNA reporter / UGCCCGCGCGAAGGAUAUGAGAGCUUGUCUGUCCAGUGAUGUUGGAGGUUGGUGAUUUGCUAGGCGUCAGAAGGUCGAGCUUAUA [theeternabot_sameState_KL_FMN_B_14]
Result: 192 nM
